Tested on: OVCAR-3 ovarian
experimental-protocol: NCI tumour cell line growth inhibition, 48 h
measure-name: TGI (µM)
Answers are plain numbers, in µM.

Check out these entries, answers already filled in.
C=CCc1cc(-c2cc(CC=C)c(O)c(CNC)c2)cc(CNC)c1O
27.9
CCCCCCc1cc2cc(-c3nc4ccccc4[nH]3)c(=Nc3ccccc3C)oc2cc1O
3.28
N#CC(c1ccnc(Cl)n1)c1nc2ccccc2s1 (stereo not given)
26.2
Cc1cccc2cc3c(ccc4ccccc43)c[n+]12
16.9
COc1cc2c3c(n(CCCN(CCN)CCCn4c5c(c6cc(OC)c(OC)cc6c4=O)C(=O)c4cc6c(cc4-5)OCO6)c(=O)c2cc1OC)-c1cc2c(cc1C3=O)OCO2
20.7
O=c1c2c3c(sc2n2c(-c4cc(-c5ccccc5)no4)nnc2n1Cc1ccccc1)CCCC3
30.5
COc1cccc(C2C3=C(COC3=O)N(CCO)c3cc(OC)ccc32)c1 (stereo not given)
0.166
O=S(=O)(Cc1ccc(Cl)cc1Cl)c1ccc(Cl)cc1
1.8
C/C=C1/CN2CCc3c([nH]c4ccccc34)[C@@H]2C[C@@H]1Cc1[nH]ccc2c1[nH]c1cc(=O)ccc12
5.15

Could you tell me which TGI is on file for CN(Cc1ccc(Cl)cc1)c1ccc(CO)c(Cl)c1 ?
13.2

====

Would you mind telling me the reported GI50 of each entry?
Tested on: A498 renal
experimental-protocol: NCI tumour cell line growth inhibition, 48 h

CC(C)Nc1ccc(Nc2ccccc2)cc1
9.69 µM
Cn1cc(C2=C(c3cccc(N)c3)C(=O)NC2=O)c2ccccc21
1.13 µM
N#Cc1cccc(OCc2nc(N)nc(N)c2-c2ccc(Cl)c(Cl)c2)c1
2.9 µM
COc1ccc2c(c1)=C(C=C1C=CN(O)C=C1)C(=O)N=2
19.7 µM
Clc1ccc(/C=C/c2cc(N3CCOCC3)c3cc(Cl)c(Cl)cc3n2)cc1
> 100 µM

Let us move to another entry and its GI50.
Lab request: please report GI50 under test system A498 renal for CC(C)(O)C#Cc1ccc(/C=C/C(=O)c2ccccc2)s1
17.7 µM

====

Please go through the items and note down their TGI.
System: KM12 colon
experimental-protocol: NCI tumour cell line growth inhibition, 48 h

CCOC(=O)N1C2C=C(C)C(ON2C(=O)c2ccccc2)C2C(C)C(=O)N21 (configuration not stated)
> 100 µM

Would you be so kind as to report TGI for each listed record?
1. Cc1nc(-c2ccccc2)c(Cc2ccccc2O)c(=O)[nH]1
2. O=C1C2C(C(=O)[N]1[Hg][c]1cccs1)C1(Cl)C(Cl)=C(Cl)C2(Cl)C1(Cl)Cl (configuration not stated)
3. CN(C)c1ccc(/C=C(\NC(=O)c2ccccc2)C(=O)NCC(=O)O)cc1
4. C=C(C)C1Cc2c(cc(OC)c3c(=O)c4cccc(O)c4oc23)O1 (configuration not stated)
5. COc1cc(-c2cc(=O)c3c(OC)c(OC)c(OC)cc3o2)c(OC)c(OC)c1OC

> 100 µM
24.3 µM
> 100 µM
> 100 µM
> 75 µM

For each entry beneath this line, provide reported TGI.
1. COC(=O)C1CCC(Nc2ccc(C)cc2C)=N1 (configuration not stated)
2. COc1ccc2c(c1)CCN=C2Cc1cc(OC)c(OC)cc1CCCl
3. N/C(=C\C(=O)n1nc(-c2ccccc2)cc1N)c1ccccc1
4. COc1ccc(N(CN2C(=O)CCC2C(=O)O)C(C)=O)cc1 (configuration not stated)
5. CC(=O)Oc1c(C)c2c(O)c3c1C1=C(OCOC1=C(C)C3=O)/C(C)=C\C(C)(O)C(O)C(C)C(O)C1C(=O)OC(C(C)C1O)C(C)(O)/C=C/C=C(C)C(=O)N2 (configuration not stated)
6. CCOCN1COCN=C1NC#N

["> 100 µM", "> 100 µM", "14.1 µM", "> 100 µM", "> 100 µM", "> 100 µM"]
